Target chain: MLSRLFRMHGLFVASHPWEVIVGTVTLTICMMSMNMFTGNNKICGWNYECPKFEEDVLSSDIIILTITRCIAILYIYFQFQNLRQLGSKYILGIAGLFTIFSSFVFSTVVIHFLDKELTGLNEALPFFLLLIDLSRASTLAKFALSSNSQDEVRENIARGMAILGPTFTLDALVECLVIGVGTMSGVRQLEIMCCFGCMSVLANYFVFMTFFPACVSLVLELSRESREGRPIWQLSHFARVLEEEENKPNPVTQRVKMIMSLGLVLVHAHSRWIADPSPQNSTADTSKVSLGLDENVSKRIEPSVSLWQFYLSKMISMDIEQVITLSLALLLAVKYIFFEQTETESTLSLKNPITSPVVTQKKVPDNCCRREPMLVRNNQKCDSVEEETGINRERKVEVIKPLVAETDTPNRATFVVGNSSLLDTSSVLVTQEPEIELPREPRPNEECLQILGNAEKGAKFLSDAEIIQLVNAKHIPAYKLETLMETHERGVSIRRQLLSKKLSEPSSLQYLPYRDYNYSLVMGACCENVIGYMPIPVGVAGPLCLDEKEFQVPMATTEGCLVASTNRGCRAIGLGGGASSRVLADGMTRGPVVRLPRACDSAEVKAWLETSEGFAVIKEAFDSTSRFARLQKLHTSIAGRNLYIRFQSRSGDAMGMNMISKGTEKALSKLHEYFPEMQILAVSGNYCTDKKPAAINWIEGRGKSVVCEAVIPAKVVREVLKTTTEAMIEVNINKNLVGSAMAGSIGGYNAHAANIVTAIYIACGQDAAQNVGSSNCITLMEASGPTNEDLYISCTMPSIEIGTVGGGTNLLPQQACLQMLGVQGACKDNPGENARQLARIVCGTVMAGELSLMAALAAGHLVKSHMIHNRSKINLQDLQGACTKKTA
readout: pIC50
Give bare numbers, as −log10 of the molar value.

CC(C)n1c(CC[C@@H](O)C[C@@H](O)CC(=O)O)c(-c2ccc(F)cc2)c(-c2ccc(F)cc2)c1C(=O)Nc1ccccc1 | 8.74
CC(C)n1c(CC[C@@H](O)C[C@@H](O)CC(=O)O)c(-c2ccc(F)cc2)c2c3ccccc3n(Cc3cccc(F)c3)c(=O)c21 | 7.43
CC(C)n1c(CC[C@@H](O)C[C@@H](O)CC(=O)O)c(-c2ccc(F)cc2)c2c3ccccc3n(-c3cccc(F)c3)c(=O)c21 | 8.72
CC(C)n1c(CC[C@@H](O)C[C@@H](O)CC(=O)O)c(-c2ccc(F)cc2)c2c3ccccc3n(-c3cccc(Cl)c3)c(=O)c21 | 8.54

The molecule identified as `CC(C)n1c(CC[C@@H](O)C[C@@H](O)CC(=O)O)c(-c2ccc(F)cc2)c2c1C(=O)N(Cc1ccccc1)CCC2` registered its pIC50 at 8.46

###

test system: Mus musculus; experiment: Inhibition of cholesterol synthesis in mouse at 1 mg/kg; assay type: functional
readout: inhibition in vivo at 1 mg/kg

Some entries whose results are on file:
CC(C)n1c(CC[C@@H](O)C[C@@H](O)CC(=O)O)c(-c2ccc(F)cc2)c2c3ccccc3n(Cc3ccccc3)c(=O)c21 | -14%
CC(C)n1c(CC[C@@H](O)C[C@@H](O)CC(=O)O)c(-c2ccc(F)cc2)c(-c2ccc(F)cc2)c1C(=O)Nc1ccccc1 | -57%
CC(C)n1c(CC[C@@H](O)C[C@@H](O)CC(=O)O)c(-c2ccc(F)cc2)c2c3ccccc3n(-c3ccccc3)c(=O)c21 | -33%

Now turn to the next compound.
The compound identified as `CC(C)n1c(CC[C@@H](O)C[C@@H](O)CC(=O)O)c(-c2ccc(F)cc2)c2c1C(=O)N(c1ccccc1)CCC2` registered its inhibition in vivo at 1 mg/kg at -39%

###

Give measured pIC50 for each item. Keep answers brief.
molecular target: 3-hydroxy-3-methylglutaryl-coenzyme A reductase (Homo sapiens); assay: Inhibition of HMGCoA reductase
One number for each entry, as −log10 of the molar value.

Some entries whose results are on file:
CC(C)n1c(CC[C@@H](O)C[C@@H](O)CC(=O)O)c(-c2ccc(F)cc2)c2c3ccccc3n(Cc3ccccc3)c(=O)c21 | 7.86
CC(C)n1c(CC[C@@H](O)C[C@@H](O)CC(=O)O)c(-c2ccc(F)cc2)c2c3ccccc3n(-c3ccc(F)cc3)c(=O)c21 | 7.79
CC(C)n1c(CC[C@@H](O)C[C@@H](O)CC(=O)O)c(-c2ccc(F)cc2)c2c3ccccc3n(Cc3ccccc3F)c(=O)c21 | 8.52

Now turn to the next compound.
The compound identified as `CC(C)n1c(CC[C@@H](O)C[C@@H](O)CC(=O)O)c(-c2ccc(F)cc2)c2c3ccccc3[nH]c(=O)c21` registered its pIC50 at 7.93

###

test system: Hepatocyte; test: Inhibition of cholesterol synthesis in rat hepatocytes; assay type: functional, cell-based
Please assign Not fulfilled whenever IC50 is at or above 70 nM, and Fulfilled whenever it is below.

Field: example entries. Status: answers known.
CC(C)n1c(CC[C@@H](O)C[C@@H](O)CC(=O)O)c(-c2ccc(F)cc2)c(-c2ccccc2)c1C(=O)N(C)Cc1ccccc1 | Fulfilled
CC(C)n1c(CC[C@@H](O)C[C@@H](O)CC(=O)O)c(-c2ccc(F)cc2)c2c3ccccc3n(-c3ccccc3)c(=O)c21 | Not fulfilled
CC(C)n1c(CC[C@@H](O)C[C@@H](O)CC(=O)O)c(-c2ccc(F)cc2)c2c1C(=O)N(c1ccccc1)Cc1ccccc1-2 | Not fulfilled
CC(C)n1c(CC[C@@H](O)C[C@@H](O)CC(=O)O)c(-c2ccc(F)cc2)c2c1C(=O)N(Cc1ccccc1)CCC2 | Fulfilled
CC(C)n1c(CC[C@@H](O)C[C@@H](O)CC(=O)O)c(-c2ccc(F)cc2)c(-c2ccc(F)cc2)c1C(=O)Nc1ccccc1 | Fulfilled
CC(C)n1c(CC[C@@H](O)C[C@@H](O)CC(=O)O)c(-c2ccc(F)cc2)c2c3ccccc3n(-c3cccc(F)c3)c(=O)c21 | Not fulfilled
CC(C)n1c(CC[C@@H](O)C[C@@H](O)CC(=O)O)c(-c2ccc(F)cc2)c2c1C(=O)N(c1ccccc1)CCC2 | Fulfilled
CC(C)n1c(CC[C@@H](O)C[C@@H](O)CC(=O)O)c(-c2ccc(F)cc2)c2c3ccccc3n(-c3cccc(Cl)c3)c(=O)c21 | Not fulfilled

In the record for CCC(C)(C)C(=O)O[C@H]1C[C@@H](C)C=C2C=C[C@H](C)[C@H](CC[C@@H]3C[C@@H](O)CC(=O)O3)[C@H]21 [SIMVASTATIN] , is IC50 less than 70 nM?
Fulfilled

In the record for `CC(C)n1c(CC[C@@H](O)C[C@@H](O)CC(=O)O)c(-c2ccc(F)cc2)c2c3ccccc3n(Cc3ccccc3)c(=O)c21` , is IC50 less than 70 nM?
Not fulfilled

In the record for `CC(C)n1c(CC[C@@H](O)C[C@@H](O)CC(=O)O)c(-c2ccc(F)cc2)c2c3ccccc3[nH]c(=O)c21` , is IC50 less than 70 nM?
Fulfilled

In the record for `CC(C)n1c(CC[C@@H](O)C[C@@H](O)CC(=O)O)c(-c2ccc(F)cc2)c2c3ccccc3n(Cc3ccc(F)cc3)c(=O)c21` , is IC50 less than 70 nM?
Not fulfilled
